Recorded CC50 at 48 h by entry
assay.procedure: Cytotoxicity study, CellTitre-Blue viability assay
condition: cat, Crandell Rees Feline Kidney (CRFK) cells, Cell Viability CC50, CRFK cells, 48 h, CellTitre-Blue

Here's what some known entries look like.
molecule	observed
CCOC(=O)/C=C/[C@H](C[C@@H]1CCNC1=O)NC(=O)[C@@H](CC(=O)[C@@H](NC(=O)c1cc(C)on1)C(C)C)Cc1ccc(F)cc1 [Rupintrivir, rupintrivir]	> 100 µM
COc1ccc2c(c1)C=C1Cn3c-2c(C2CCCCC2)c2ccc(cc23)C(=O)NS(=O)(=O)N(C)CCOCCN(C)C1=O [TMC-647055]	< 30 µM

// below: CC50 at 48 h requested for another molecule
Q: Entry C[C@@]1(O)[C@H](O)[C@@H](CO)O[C@H]1n1ccc(N)nc1=O [2CMC, 2′-C-methylcytidine] needs its CC50 at 48 h filled in; supply it.
Result: > 100 µM

* * *

assayed.target: FCV RdRp (recombinant FCV Pro-Pol) (Feline calicivirus, UniProt Q66914)
Sequence (Q66914 1072-1763): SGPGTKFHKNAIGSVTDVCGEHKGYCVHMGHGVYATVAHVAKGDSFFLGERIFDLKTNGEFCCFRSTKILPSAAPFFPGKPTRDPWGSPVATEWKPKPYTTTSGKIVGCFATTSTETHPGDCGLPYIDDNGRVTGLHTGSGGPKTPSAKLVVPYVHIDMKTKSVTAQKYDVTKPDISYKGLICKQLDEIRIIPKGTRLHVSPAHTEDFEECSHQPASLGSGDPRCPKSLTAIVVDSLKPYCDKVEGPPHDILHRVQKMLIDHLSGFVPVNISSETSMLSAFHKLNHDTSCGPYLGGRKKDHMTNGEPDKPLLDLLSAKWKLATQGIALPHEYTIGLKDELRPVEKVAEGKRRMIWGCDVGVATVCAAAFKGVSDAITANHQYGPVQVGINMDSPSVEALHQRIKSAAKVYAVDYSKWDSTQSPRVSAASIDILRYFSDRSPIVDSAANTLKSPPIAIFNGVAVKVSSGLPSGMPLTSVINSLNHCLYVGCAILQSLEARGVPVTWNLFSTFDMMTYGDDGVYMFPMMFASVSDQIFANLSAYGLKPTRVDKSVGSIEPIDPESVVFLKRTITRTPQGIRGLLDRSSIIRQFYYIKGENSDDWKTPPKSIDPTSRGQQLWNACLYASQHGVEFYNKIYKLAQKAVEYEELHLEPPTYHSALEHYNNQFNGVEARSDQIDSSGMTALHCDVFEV
assay.procedure: Fluorescent RdRp assay (PicoGreen, poly(C) template)
recorded.endpoint: IC50 (nM)
Give the number; nM is assumed, so skip it.

Q: Entry O=c1c(O)c(-c2ccc(O)c(O)c2)oc2cc(O)c(O)c(O)c12 [Quercetagetin, quercetagetin] needs its IC50 filled in; supply it.
Result: 2800

* * *

assayed.target: FCV RdRp (recombinant FCV Pro-Pol) (Feline calicivirus)
assay.procedure: Fluorescent RdRp assay (PicoGreen, poly(C) template)
condition: read-out: RdRp Activity IC50; dose-response 0.1-100 µM
recorded.endpoint: pIC50
The meaning of pIC50 here: minus log10 of the concentration in molar units.

Q: Entry `Cc1nc(N=Nc2cc(S(=O)(=O)O)c3cc([N+](=O)[O-])cc(S(=O)(=O)O)c3c2)c(COP(=O)(O)O)c(C=O)c1O` needs its pIC50 filled in; supply it.
Result: 5.57

* * *

assayed.target: FCV protease (recombinant FCV Pro-Pol) (Feline calicivirus, UniProt Q66914)
Sequence (Q66914 1072-1763): as above
assay.procedure: Protease FRET activity assay
Format: biochemical, Feline calicivirus (FCV Urbana)
pIC50: −log10 of the molar value.
recorded.endpoint: pIC50

compound	assayed.target	pIC50
CCOC(=O)/C=C/[C@H](C[C@@H]1CCNC1=O)NC(=O)[C@@H](CC(=O)[C@@H](NC(=O)c1cc(C)on1)C(C)C)Cc1ccc(F)cc1 [Rupintrivir, rupintrivir]	FCV protease (recombinant FCV Pro-Pol) (Feline calicivirus, UniProt Q66914)	< 4.30

Q: Entry CC(=O)Oc1ccccc1C(=O)Nc1ncc([N+](=O)[O-])s1 [Nitazoxanide, nitazoxanide] needs its pIC50 filled in; supply it.
Result: < 5.00

* * *

assayed.target: FCV RdRp (recombinant FCV Pro-Pol) (Feline calicivirus)
assay.procedure: Fluorescent RdRp assay (PicoGreen, poly(C) template)
condition: fixed concentration of 10 µM
recorded.endpoint: Reduction of RdRp activity compared to mock controls

Here's what some known entries look like.
smiles.code	observed
O=c1c(O)c(-c2ccc(O)c(O)c2)oc2cc(O)c(O)c(O)c12	88.3%
Cc1nc(N=Nc2cc(S(=O)(=O)O)c3cc([N+](=O)[O-])cc(S(=O)(=O)O)c3c2)c(COP(=O)(O)O)c(C=O)c1O	92.6%
O=C(O)c1ccc2c(c1)nc(-c1ccc(OCc3cc(N4CCCC4=O)ccc3-c3ccc(Cl)cc3)cc1F)n2C1CCCCC1	≤ 10%
COc1ccc2c(c1)[C@@H]1C[C@]1(C(=O)N1[C@@H]3CC[C@H]1CN(C)C3)Cn1c-2c(C2CCCCC2)c2ccc(C(=O)NS(=O)(=O)N(C)C)cc21	≤ 10%

// below: Reduction of RdRp activity compared to mock controls requested for another molecule
Q: Quote Reduction of RdRp activity compared to mock controls with test system FCV RdRp (recombinant FCV Pro-Pol) (Feline calicivirus) for `COc1ccc2c(c1)C=C1Cn3c-2c(C2CCCCC2)c2ccc(cc23)C(=O)NS(=O)(=O)N(C)CCOCCN(C)C1=O`
Result: ≤ 10%

* * *

assayed.target: FCV RdRp (recombinant FCV Pro-Pol) (Feline calicivirus, UniProt Q66914)
assay.procedure: Fluorescent RdRp assay (PicoGreen, poly(C) template)
condition: 10 µM compound, remaining activity relative to mock
hey, just use 1 if measured RdRp Activity [% of Mock at 10 µM] is less than 90%, otherwise -1

Q: Bench note: check whether `COc1ccc2c(c1)C=C1Cn3c-2c(C2CCCCC2)c2ccc(cc23)C(=O)NS(=O)(=O)N(C)CCOCCN(C)C1=O` shows RdRp Activity [% of Mock at 10 µM] below 90%
Result: -1

Q: Bench note: check whether `Cc1nc(N=Nc2cc(S(=O)(=O)O)c3cc([N+](=O)[O-])cc(S(=O)(=O)O)c3c2)c(COP(=O)(O)O)c(C=O)c1O` shows RdRp Activity [% of Mock at 10 µM] below 90%
Result: 1

Q: Bench note: check whether `O=c1c(O)c(-c2ccc(O)c(O)c2)oc2cc(O)c(O)c(O)c12` shows RdRp Activity [% of Mock at 10 µM] below 90%
Result: 1

* * *

assay.procedure: Cytotoxicity study, CellTitre-Blue viability assay
condition: cat
recorded.endpoint: CC50 at 48 h

Q: Entry `CC(C)OC(=O)[C@H](C)N[P@](=O)(OC[C@H]1O[C@@H](n2ccc(=O)[nH]c2=O)[C@](C)(F)[C@@H]1O)Oc1ccccc1` needs its CC50 at 48 h filled in; supply it.
Result: > 100 µM

meta.source: paper PMC6116245
